Kindly state MIC for each of the entries shown.
# Tested on: Escherichia coli
# measurementNotes: Antimicrobial activity against Escherichia coli DH10B harboring beta-lactamase KPC-2 T237A mutant by agar dilution method
# Type: functional
# conditionInfo: K-12 DH10B
Answers are plain numbers, in µg/mL.

The following molecules have reported results that may help.
> print(dat)
                    compoundstructurestring  reportedresult
1  CCN1CCN(C(=O)N[C@@H](C(=O)N[C@@H]2C(=O)N3[C@@H]2SC(C)(C)[C@@H]3C(=O)O)c2ccccc2)C(=O)C1=O              64
2  C[C@@H](O)[C@H]1C(=O)N2C(C(=O)O)=C(S[C@@H]3CN[C@H](CNS(N)(=O)=O)C3)[C@H](C)[C@H]12            0.06

For the next question, use this molecule.
Request: // returns reported MIC for input CO/N=C(\C(=O)N[C@@H]1C(=O)N2C(C(=O)O)=C(COC(C)=O)CS[C@H]12)c1csc(N)n1
Response: 0.06
